# TARGET_OF_ASSAY: T1, CRT (>90% pure) used for surface plasmon resonance (human, UniProt P27797 18-417)
# T1 chain: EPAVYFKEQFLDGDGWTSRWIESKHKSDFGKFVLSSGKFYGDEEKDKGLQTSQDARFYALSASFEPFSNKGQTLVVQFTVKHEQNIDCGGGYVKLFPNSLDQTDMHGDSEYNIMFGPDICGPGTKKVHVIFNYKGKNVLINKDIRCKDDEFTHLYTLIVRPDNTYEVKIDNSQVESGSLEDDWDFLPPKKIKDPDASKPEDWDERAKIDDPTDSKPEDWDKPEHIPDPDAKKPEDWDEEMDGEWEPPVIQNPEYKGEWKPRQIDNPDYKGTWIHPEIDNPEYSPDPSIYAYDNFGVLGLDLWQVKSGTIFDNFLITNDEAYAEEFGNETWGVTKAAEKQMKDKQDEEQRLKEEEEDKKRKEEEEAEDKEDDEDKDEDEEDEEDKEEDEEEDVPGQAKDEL
# METHOD_DESCRIPTION: SPR
pKd: −log10 of the molar value. Ends that are not written are not given here. * marks the point of attachment. Biotin = O=C1N[C@H]2[C@H](CS[C@H]2CCCCC(=O)*)N1
READOUT_TYPE: pKd

binder="Biotin-KAGFFKRQYKSILQEENRRDSWSYINSKSNDD [N-terminally biotinylated intracellular domain of the ITGA4 peptide]" readout_type=pKd reported_result=6.60
